Molecular target: Peroxisome proliferator-activated receptor gamma (Homo sapiens) (UniProt P37231)
Sequence (whole entry): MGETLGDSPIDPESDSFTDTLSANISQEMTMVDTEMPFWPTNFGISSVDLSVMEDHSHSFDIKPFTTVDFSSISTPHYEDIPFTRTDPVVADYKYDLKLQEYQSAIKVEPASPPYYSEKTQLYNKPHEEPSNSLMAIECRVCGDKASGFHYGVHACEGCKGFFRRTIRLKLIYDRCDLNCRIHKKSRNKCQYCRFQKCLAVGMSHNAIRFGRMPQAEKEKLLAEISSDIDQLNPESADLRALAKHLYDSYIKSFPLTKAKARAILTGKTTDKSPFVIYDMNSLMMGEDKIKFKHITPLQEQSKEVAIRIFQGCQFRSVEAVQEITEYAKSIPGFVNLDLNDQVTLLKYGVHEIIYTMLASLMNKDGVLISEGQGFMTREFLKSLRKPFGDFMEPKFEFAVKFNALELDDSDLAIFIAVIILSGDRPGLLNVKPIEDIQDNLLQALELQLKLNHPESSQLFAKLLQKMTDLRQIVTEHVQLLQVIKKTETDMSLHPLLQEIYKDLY
Experiment: Agonist activity at human PPAR gamma transfected in African green monkey COS-7 cells co-transfected with CMX-Gal4 fused hPPARgamma/TK-MH100x4-Luc/renilla luciferase at 10 uM incubated for 24 hrs by Dual-Glo luciferase assay
Format: cell-based
Conditions: filed as agonist
Activity calls are given as the source filed them. The rule behind the calls is not given here.
REPORTED ENDPOINT: Activity

Consider the reported Activity for these compounds:
> print(dat)
                                   compound  result
1  COc1cc(CCc2ccccc2)c(C(=O)O)c(O)c1CC=C(C)C  Active
2  C=C(C)C(Cc1c(OC)cc(CCc2ccccc2)c(C(=O)O)c1O)OO (racemic)  Active
3  C=C(C)C(O)Cc1c(OC)cc(CCCCC)c(C(=O)O)c1O (racemic)  Active
4  COc1c(CC=C(C)C)c(O)c(C(=O)O)c(CCc2ccccc2)c1CC=C(C)C  Active

The record that follows has no Activity shown yet.
## Input Item C=C(C)C(O)Cc1c(OC)cc(CCc2ccccc2)c(C(=O)O)c1O (racemic) has what recorded Activity?
## Output Active
